Biological target: glucan synthase (Candida albicans)
Construct: glucan synthase sources (2 μL permeabilized PM503 cells, or 3 μL membrane preparations from either PM503, BWP17, or ND158); endogenous in cells; host or cells: C. albicans strain BWP17, 100,000 g membrane fraction
Sequence (O13428 1-1897): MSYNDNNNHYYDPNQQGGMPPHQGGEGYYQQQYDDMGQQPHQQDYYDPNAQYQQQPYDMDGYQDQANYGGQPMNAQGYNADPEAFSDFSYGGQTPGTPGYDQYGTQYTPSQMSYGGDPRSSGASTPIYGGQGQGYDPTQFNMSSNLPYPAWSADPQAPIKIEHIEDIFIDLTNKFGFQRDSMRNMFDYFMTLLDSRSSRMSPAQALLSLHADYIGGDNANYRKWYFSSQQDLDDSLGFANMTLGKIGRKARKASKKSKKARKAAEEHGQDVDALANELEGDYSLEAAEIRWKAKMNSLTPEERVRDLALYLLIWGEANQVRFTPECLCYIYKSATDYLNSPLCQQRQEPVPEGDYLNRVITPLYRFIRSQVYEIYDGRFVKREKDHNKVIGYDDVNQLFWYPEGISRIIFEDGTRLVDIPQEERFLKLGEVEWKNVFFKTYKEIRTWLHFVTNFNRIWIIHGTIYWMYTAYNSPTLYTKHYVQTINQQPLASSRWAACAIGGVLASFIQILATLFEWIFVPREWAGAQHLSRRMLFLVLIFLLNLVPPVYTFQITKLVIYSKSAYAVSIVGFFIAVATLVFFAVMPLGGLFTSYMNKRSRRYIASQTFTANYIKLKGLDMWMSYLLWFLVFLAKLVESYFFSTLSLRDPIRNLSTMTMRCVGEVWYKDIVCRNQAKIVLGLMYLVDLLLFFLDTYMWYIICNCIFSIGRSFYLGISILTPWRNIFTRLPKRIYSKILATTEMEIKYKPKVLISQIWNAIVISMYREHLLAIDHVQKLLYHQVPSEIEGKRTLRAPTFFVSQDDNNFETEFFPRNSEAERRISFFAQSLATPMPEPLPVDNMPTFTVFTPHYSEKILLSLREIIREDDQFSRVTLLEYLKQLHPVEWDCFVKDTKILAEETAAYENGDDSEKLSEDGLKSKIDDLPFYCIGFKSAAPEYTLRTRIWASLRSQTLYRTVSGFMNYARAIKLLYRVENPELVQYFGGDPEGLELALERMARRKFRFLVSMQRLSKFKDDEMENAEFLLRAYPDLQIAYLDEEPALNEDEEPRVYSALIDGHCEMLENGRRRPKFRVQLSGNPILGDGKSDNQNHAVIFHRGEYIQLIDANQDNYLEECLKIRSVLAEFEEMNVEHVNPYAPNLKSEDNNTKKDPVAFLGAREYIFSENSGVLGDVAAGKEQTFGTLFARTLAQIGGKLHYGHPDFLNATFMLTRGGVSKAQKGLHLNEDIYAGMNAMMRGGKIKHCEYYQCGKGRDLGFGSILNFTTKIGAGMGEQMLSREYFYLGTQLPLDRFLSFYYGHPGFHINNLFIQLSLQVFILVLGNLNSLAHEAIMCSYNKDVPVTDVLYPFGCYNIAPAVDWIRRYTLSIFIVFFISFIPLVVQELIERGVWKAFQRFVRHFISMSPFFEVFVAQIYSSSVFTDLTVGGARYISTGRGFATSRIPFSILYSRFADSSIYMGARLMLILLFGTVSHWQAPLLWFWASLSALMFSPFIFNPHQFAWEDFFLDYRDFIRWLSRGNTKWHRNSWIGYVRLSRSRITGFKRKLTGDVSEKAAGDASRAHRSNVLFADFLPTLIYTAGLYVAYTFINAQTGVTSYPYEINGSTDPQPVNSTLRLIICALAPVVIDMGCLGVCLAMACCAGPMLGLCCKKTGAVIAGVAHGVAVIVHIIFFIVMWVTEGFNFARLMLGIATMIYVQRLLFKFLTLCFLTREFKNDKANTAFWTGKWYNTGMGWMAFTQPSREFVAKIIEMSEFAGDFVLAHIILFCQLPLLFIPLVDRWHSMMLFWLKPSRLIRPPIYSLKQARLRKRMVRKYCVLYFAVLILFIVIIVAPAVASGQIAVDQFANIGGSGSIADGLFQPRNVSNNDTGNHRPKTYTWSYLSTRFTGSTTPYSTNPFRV
Sequence (O42825 1-195 partner limits assumed): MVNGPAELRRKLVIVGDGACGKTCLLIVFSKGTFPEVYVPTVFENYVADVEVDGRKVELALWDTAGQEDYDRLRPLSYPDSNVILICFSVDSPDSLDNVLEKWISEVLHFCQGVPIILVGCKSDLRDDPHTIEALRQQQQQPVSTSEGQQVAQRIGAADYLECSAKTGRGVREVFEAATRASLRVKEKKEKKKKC
Experiment: β(1,3) glucan synthase assay, C. albicans BWP17 membrane preparation (IC50)
Assay type: biochemical
Settings: in vitro fungal enzyme activity assay, read-out: IC50 (μg/mL) Candida albicans (converted)
# log10(IC50) listing for each entry below
Scale: decimal log of IC50, IC50 in nM.

| MOLECULE | log10(IC50) |
| --- | --- |
| CC1(COc2c(N3CCN(S(=O)(=O)Cc4ccc(N)cc4)CC3)cnn(-c3cccc(Cl)c3)c2=O)CC1 [745Z] | 2.04 |
| Cc1ccc(CNS(=O)(=O)N2CCN(c3cnn(-c4cccc(Cl)c4)c(=O)c3OCC3(C)CC3)CC2)cc1N [1683Z] | 2.09 |
| CC(C)(C)COc1c(N2CCN(S(=O)(=O)Cc3ccc(N)cc3)CC2)cnn(-c2cc(F)cc(F)c2)c1=O [1529Z-174] | 2.26 |
| O=c1c(-c2ccc(C3CCCCC3)cc2)c(N2CCN(S(=O)(=O)Cc3ccccc3)CC2)cnn1-c1cc(F)cc(F)c1 [96Z] | 3.19 |

Query block: Tell me the measured log10(IC50) of CC1CCC(Oc2c(N3CCN(S(=O)(=O)Cc4cccc(N)c4)CC3)cnn(-c3ccccc3)c2=O)C1 (stereo not drawn) [1529Z-70] , please.
Result block: 2.18

Query block: Continue with Cc1cc(CS(=O)(=O)N2CCN(c3cnn(-c4cccc(Cl)c4)c(=O)c3OCC3(C)CC3)CC2)ccc1N [1869Z]
Result block: 2.16

Query block: Continue with CC1(COc2c(N3CCN(S(=O)(=O)NCc4ccc(N)c(F)c4)CC3)cnn(-c3cccc(Cl)c3)c2=O)CC1 [1712Z]
Result block: 2.02

Query block: Continue with CC1(COc2c(N3CCN(S(=O)(=O)Cc4ccc(N)cc4)CC3)cnn(-c3cc(F)cc(F)c3)c2=O)CC1 [767Z]
Result block: 2.38

Query block: Continue with O=c1c(OCc2cccc(F)c2)c(N2CCN(S(=O)(=O)Cc3ccccc3)CC2)cnn1-c1cc(F)cc(F)c1 [1529Z-150]
Result block: 2.24

Query block: Continue with CS(=O)(=O)N1CCN(c2cnn(-c3cccc(Cl)c3)c(=O)c2OC2CCc3ccccc3C2)CC1 (stereo not drawn) [974Z]
Result block: 2.81

Query block: Continue with CCCCCCCOc1c(N2CCN(S(=O)(=O)CC)CC2)cnn(-c2ccccc2)c1=O [244Z]
Result block: 2.95

###

Target: glucan synthase (Saccharomyces cerevisiae, UniProt P38631)
Construct: glucan synthase sources (2 μL permeabilized PM503 cells, or 3 μL membrane preparations from either PM503, BWP17, or ND158); endogenous in cells
Sequence (P06780 1-206): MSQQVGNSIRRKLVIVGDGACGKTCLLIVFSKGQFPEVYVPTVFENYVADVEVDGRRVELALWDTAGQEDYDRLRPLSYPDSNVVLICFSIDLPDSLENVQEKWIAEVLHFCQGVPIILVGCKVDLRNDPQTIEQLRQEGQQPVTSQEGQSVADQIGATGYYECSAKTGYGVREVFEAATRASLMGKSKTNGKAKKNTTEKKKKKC
Sequence (P38631 whole entry): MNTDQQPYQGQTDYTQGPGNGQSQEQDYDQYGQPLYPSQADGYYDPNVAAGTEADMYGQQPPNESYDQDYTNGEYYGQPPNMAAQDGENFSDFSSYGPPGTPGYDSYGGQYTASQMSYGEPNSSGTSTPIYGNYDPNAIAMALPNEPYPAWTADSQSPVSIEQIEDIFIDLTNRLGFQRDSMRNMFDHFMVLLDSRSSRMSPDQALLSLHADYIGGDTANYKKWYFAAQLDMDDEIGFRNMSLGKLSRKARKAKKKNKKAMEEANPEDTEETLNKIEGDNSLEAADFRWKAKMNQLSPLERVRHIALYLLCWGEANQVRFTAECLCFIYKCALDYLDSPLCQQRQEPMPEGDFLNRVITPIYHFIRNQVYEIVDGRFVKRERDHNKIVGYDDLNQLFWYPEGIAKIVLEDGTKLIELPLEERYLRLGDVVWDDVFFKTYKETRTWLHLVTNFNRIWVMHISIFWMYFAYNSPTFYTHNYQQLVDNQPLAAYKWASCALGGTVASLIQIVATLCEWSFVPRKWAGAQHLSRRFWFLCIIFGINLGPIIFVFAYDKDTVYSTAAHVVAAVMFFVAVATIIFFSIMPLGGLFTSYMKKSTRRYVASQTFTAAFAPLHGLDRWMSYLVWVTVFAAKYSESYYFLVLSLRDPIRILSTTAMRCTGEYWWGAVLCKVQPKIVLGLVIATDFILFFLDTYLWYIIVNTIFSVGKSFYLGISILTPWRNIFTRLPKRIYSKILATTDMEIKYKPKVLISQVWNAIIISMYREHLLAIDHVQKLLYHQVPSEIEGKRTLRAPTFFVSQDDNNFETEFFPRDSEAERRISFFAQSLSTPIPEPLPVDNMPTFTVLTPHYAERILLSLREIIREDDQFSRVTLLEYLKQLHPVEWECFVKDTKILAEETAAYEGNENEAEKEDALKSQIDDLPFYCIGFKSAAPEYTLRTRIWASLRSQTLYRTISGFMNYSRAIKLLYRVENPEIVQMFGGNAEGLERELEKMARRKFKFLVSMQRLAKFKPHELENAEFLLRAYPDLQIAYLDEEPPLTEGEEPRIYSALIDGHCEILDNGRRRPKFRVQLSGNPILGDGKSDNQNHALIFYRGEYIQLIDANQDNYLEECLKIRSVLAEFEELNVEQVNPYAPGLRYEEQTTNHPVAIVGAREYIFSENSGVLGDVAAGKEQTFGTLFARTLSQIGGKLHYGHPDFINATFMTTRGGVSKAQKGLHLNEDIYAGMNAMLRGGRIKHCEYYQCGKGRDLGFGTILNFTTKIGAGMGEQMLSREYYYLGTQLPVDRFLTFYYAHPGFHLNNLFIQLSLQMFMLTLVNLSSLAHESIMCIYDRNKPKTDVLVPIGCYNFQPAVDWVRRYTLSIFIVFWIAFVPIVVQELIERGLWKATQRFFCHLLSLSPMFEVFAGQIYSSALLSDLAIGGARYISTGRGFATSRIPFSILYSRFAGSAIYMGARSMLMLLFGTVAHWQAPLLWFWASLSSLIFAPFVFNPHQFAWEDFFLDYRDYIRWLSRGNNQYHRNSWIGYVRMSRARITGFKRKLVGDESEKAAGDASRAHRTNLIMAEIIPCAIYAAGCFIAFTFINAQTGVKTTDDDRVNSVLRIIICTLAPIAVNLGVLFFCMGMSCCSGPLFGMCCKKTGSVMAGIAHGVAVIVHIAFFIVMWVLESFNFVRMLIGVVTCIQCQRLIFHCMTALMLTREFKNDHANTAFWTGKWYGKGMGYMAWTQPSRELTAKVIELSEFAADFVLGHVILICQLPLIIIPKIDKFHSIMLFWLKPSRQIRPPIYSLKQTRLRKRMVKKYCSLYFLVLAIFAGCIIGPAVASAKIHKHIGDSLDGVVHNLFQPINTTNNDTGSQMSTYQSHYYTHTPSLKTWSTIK
Experiment: β(1,3) glucan synthase assay, S. cerevisiae PM503 permeabilized cells or membrane preparation (IC50)
Lab note: compare IC50 with 100 nM, writing Condition met if less and Condition not met if equal or more.

| COMPOUND | GROUP_LABEL |
| --- | --- |
| CC1(COc2c(N3CCN(S(=O)(=O)NCc4ccc(Cl)nc4)CC3)cnn(-c3cccc(Cl)c3)c2=O)CC1 [1675Z] | Condition not met |
| Cc1cc(CS(=O)(=O)N2CCN(c3cnn(-c4cc(F)cc(F)c4)c(=O)c3OCC3(C)CC3)CC2)ccc1N [1870Z] | Condition met |
| O=c1c(OC2CCCC2)c(N2CCN(S(=O)(=O)Cc3ccccc3)CC2)cnn1-c1cccc(F)c1 [1402Z] | Condition met |

Moving on to another compound below.
Query block: In plain terms, does CCOCCOc1c(N2CCN(Cc3c(Cl)cccc3Cl)CC2)cnn(-c2cc(Cl)cc(Cl)c2)c1=O [214Z] come in under 100 nM for IC50?
Result block: Condition not met
